// provenance: ChEMBL document CHEMBL3792388

Test system: dengue virus type 4
Assay: Antiviral activity against Dengue virus 4 S9201818 infected in human HuH7 cells assessed as inhibition of viral RNA level measured 72 hrs post infection by qRT-PCR method
Type: functional, organism-based
Conditions: S9201818, Huh-7, 72 h
OUTCOME_MEASURE: pEC50
pEC50 field: float, defined as -log10 of concentration (mol/L).

**Query** Determine from records and report pEC50 for CC(C)CC[C@@H](O)[C@](C)(O)[C@H]1CC[C@@]2(O)C3=CC(=O)[C@@H]4C[C@@H](O)[C@@H](O)C[C@]4(C)[C@H]3[C@H](O)C[C@]12C
**Result** 4.92
